Entries and their IC50 of neutralisation of SF162 pseudovirus, TZM-bl cells (luciferase)
- target_under_test: Env of HIV-1 SF162 on pseudovirus (HIV-1 strain SF162)

Task: Look up IC50 of neutralisation of SF162 pseudovirus, TZM-bl cells (luciferase): Fv 447–52D Trp^L91Ala (other, human) VH: EVQLVESGGGLVKPGGSLRLTCVASGFTFSDVWLNWVRQAPGKGLEWVGRIKSRTDGGTTDYAASVKGRFTISRDDSKNTLYLQMNSLKTEDTAVYSCTTDGFIMIRGVSEDYYYYYMDVWGKGTTVTVSS VL: QSVLTQPPSVSAAPGQKVTISCSGSSSNIGNNYVLWYQQFPGTAPKLLIYGNNKRPSGIPDRFSGSKSGTSATLGITGLQTGDEADYFCATADSGLSADWVFGGGTKLTVL
Result: 76 µM

Task: May I ask what IC50 of neutralisation of SF162 pseudovirus, TZM-bl cells (luciferase) has been recorded for Fv 447–52D Trp^H33Ala (other, human) VH: EVQLVESGGGLVKPGGSLRLTCVASGFTFSDVALNWVRQAPGKGLEWVGRIKSRTDGGTTDYAASVKGRFTISRDDSKNTLYLQMNSLKTEDTAVYSCTTDGFIMIRGVSEDYYYYYMDVWGKGTTVTVSS VL: QSVLTQPPSVSAAPGQKVTISCSGSSSNIGNNYVLWYQQFPGTAPKLLIYGNNKRPSGIPDRFSGSKSGTSATLGITGLQTGDEADYFCATWDSGLSADWVFGGGTKLTVL ?
Result: 68 µM
